From: the supplement of paper PMC9732359

assay: protein stability index of a GFP-peptide fusion (yeast GPS) (PSI 1-4); higher = more stable; sorted into four equal gates, so the index is relative within each strain; details: pdr5∆
Recorded protein stability index for the following sequences
Give the value as a plain number.

Below: 5 sequences and their reported protein stability index.
{"BIOPOLYMER_SEQUENCE": "YGPPGTGKTLLARACAA [RPT5]", "RESULT_NUMBER": 2.53}
{"BIOPOLYMER_SEQUENCE": "HTPTIASYLTPLLEAKK [SSN2]", "RESULT_NUMBER": 3.04}
{"BIOPOLYMER_SEQUENCE": "RDMTYSAPIYVDIEYTR [RET1]", "RESULT_NUMBER": 1.98}
{"BIOPOLYMER_SEQUENCE": "KEGASTNWDDHAIIIFG [YMR153W/NUP53]", "RESULT_NUMBER": 3.05}
{"BIOPOLYMER_SEQUENCE": "LEHDVEYRPFSKKVLEC [DIS3]", "RESULT_NUMBER": 3.6}

Which protein stability index value belongs to GDKEATAPLIQRKNKKN [RPN8] ?
3.42

I have this sequence here, APIKKIIERYIKSKADA [PRP8] , and I need its recorded protein stability index.
3.24

What measured protein stability index goes with GVAHLLNRFNFQNTNTR [QCR2] ?
2.58

Give its protein stability index value. Item: KSAISNNFRESDIIILK [SIR4]
2.56
